target: human HIF-PHD2 (Homo sapiens, UniProt Q9GZT9)
Sequence (Q9GZT9 2-426 limits assumed): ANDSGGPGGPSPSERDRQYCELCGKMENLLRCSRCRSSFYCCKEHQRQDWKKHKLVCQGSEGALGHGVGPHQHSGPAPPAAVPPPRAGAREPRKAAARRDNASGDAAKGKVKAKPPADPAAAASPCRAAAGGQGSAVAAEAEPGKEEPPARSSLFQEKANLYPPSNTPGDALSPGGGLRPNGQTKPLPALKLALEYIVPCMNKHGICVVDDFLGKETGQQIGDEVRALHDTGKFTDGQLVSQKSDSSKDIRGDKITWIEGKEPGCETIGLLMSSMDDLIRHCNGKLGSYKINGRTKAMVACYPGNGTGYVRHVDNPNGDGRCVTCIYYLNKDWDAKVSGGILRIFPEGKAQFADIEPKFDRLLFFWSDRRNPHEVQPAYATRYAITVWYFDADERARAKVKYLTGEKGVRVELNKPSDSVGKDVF
pIC50: −log10 of the molar value.
measurement.name: pIC50

chemical.smiles | measurement.name | relation.sign | result.value
C[C@H](C1CCC(C)(C)CC1)n1ncc2nc(-n3cc(C(=O)O)cn3)nc(O)c21 | pIC50 | = | 6.96
Cc1nn([C@@H](C)c2cccc(F)c2)c2c(O)nc(-n3cc(C(=O)O)cn3)nc12 | pIC50 | < | 6.52
CC1(C)CCC(Cn2ncc3nc(-n4cc(C(=O)O)cn4)nc(O)c32)CC1 | pIC50 | = | 7.70
O=C(O)c1cnn(-c2nc(O)c3c(cnn3Cc3ccc(C(F)(F)F)c(Cl)c3)n2)c1 | pIC50 | = | 7.39
Cc1cccc(OCCCn2ncc3nc(-n4cc(C(=O)O)cn4)nc(O)c32)c1C | pIC50 | = | 7.72
CC1(C)CC(=O)N(c2ccc(Cn3ncc4nc(-n5cc(C(=O)O)cn5)nc(O)c43)cc2)C1 | pIC50 | = | 7.21
Cc1nn(CC2CCCCC2)c2c(O)nc(-n3cc(C(=O)O)cn3)nc12 | pIC50 | = | 7.08
O=C(O)c1cnn(-c2nc(O)c3c(cnn3Cc3ccc(C4CC4)cc3)n2)c1 | pIC50 | = | 7.96
